target: aldose reductase (Rattus norvegicus, UniProt P07943)
recorded_endpoint: pIC50
By convention, pIC50 is the negative base-10 log of a molar concentration.

CCCCCCCc1ccc(-c2nnnn2CC(=O)O)cc1 [Compound 3-24] :: 7.77
CCCCCCCOc1ccc(-c2nnnn2CC(=O)O)cc1 [Compound 3-32] :: 7.54

Report pIC50 for O=C(O)Cn1nnnc1-c1ccc(CBr)cc1 [Compound 3-41]
7.70

Report pIC50 for O=C(O)Cn1nnnc1-c1cccc(NC(=O)C(=O)O)c1 [Compound 3-12]
7.51

Report pIC50 for CC(C)(C)c1ccc(-c2nnnn2CC(=O)O)cc1 [Compound 3-26]
7.57
